B1: CAMK2D (parent)
chain: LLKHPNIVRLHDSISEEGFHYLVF

Variants of: B1
PROCEDURE_SUMMARY: protein stability index of a GFP-peptide fusion (GPS, HEK-293T) (PSI 1-6); higher = more stable;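 further: lentivirally expressed fusions sorted by FACS into six bins by GFP to DsRed ratio, PSI derived from sequencing read proportions per bin multiplied by bin number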
CONDITIONS_USED: c terminus: a fixed tail appended
Assign protein stability index to each entry below.
One number for each entry.

R9H | 2.1
D12T | 2.59
F19C | 1.37

Lab note: each variant below needs its protein stability index filled in.
1. L10Q
2. V8H
3. N6A
4. H11T
5. K3S
6. H4E
7. E17S

Data returned:
1.7
1.8
2.22
2.52
1.79
2.6
2.93

Please give protein stability index, item by item, for the list that follows.
1. L10C
2. S13E
3. N6W
4. V8E
5. L2G
6. D12N

Data returned:
2.11
1.47
2.75
2.17
2.37
1.61
